Data origin, for the record: PubChem BioAssay AID1745844

# System: rodent lifetime carcinogenesis bioassay, tumor incidence TD50
# assayName: carcinogenic potency in animals, long-term in vivo studies, CPDB compilation (AID 1745844)
# measurementSetup: mouse; strain CDF1; females; in feed; site: liver; lesion: several types; types named in the paper; dosed 84 weeks; study length 84 weeks
In this section we review reported TD50 values for a set of molecules.

In [3]: df
Out[3]:
                 samplesmiles                               studysystem  parameter          result
0  Cc1cc2c(nc1N)[nH]c1ccccc12  rodent lifetime carcinogenesis bioassay, tumor incidence TD50       TD50  38.6 mg/kg/day

Prompt line: If you can, please state the reported TD50 value of "Cc1cnc2ccc3c(nc(N)n3C)c2n1" .
Response line: 14.2 mg/kg/day

* * *

# Tested on: rodent lifetime carcinogenesis bioassay, tumor incidence TD50
# assayName: carcinogenic potency in animals, long-term in vivo studies, CPDB compilation (AID 1745844)
# measurementSetup: mouse; strain B6C3F1; males; by gavage; site: kidney; lesion: tubular-cell adenocarcinoma; dosed 102 weeks; study length 104 weeks
parameter: TD50

Prompt line: If you can, please state the reported TD50 value of "ClC(Cl)Br" .
Response line: 336 mg/kg/day

* * *

# Tested on: rodent lifetime carcinogenesis bioassay, tumor incidence TD50
# assayName: carcinogenic potency in animals, long-term in vivo studies, CPDB compilation (AID 1745844)
# measurementSetup: mouse; strain Swiss albino; females; in drinking water; site: lung; lesion: adenocarcinoma; dosed 82 weeks; study length 82 weeks
parameter: TD50
Answer format reminder: number followed by unit.

Prompt line: If you can, please state the reported TD50 value of "CCNN" .
Response line: 14 mg/kg/day

* * *

# System: rodent lifetime carcinogenesis bioassay, tumor incidence TD50
# assayName: carcinogenic potency in animals, long-term in vivo studies, CPDB compilation (AID 1745844)
# measurementSetup: rat; strain Sprague-Dawley; females; by gavage; site: liver; lesion: hepatocellular adenoma; dosed 104 weeks; study length 104 weeks
Active and inactive are the calls of the source. No rule for the calls is given here.
In this section we review reported TD50 values for a set of compounds.

>>> print(df.to_string())
   samplesmiles         result
0        C=CC=O  214 mg/kg/day

Prompt line: Query for rodent lifetime carcinogenesis bioassay, tumor incidence TD50: what TD50 does the record show for "CN1C(C(=O)Nc2ccccn2)=C(O)c2sc(Cl)cc2S1(=O)=O" ?
Response line: 13.2 mg/kg/day (inactive)

* * *

# Tested on: rodent lifetime carcinogenesis bioassay, tumor incidence TD50
# assayName: carcinogenic potency in animals, long-term in vivo studies, CPDB compilation (AID 1745844)
# measurementSetup: rat; strain Fischer 344; females; in drinking water; site: lung; lesion: several types; types named in the paper; dosed 30 weeks; study length 75 weeks
parameter: TD50 (mg/kg/day)
Give a bare numeral; the unit mg/kg/day is implied.

Prompt line: If you can, please state the reported TD50 value of CC(O)CN(C)N=O (stereo unspecified) .
Response line: 0.408

* * *

# System: rodent lifetime carcinogenesis bioassay, tumor incidence TD50
# assayName: carcinogenic potency in animals, long-term in vivo studies, CPDB compilation (AID 1745844)
# measurementSetup: rat; strain Wistar; males; inhaled; site: nose; lesion: adenocarcinoma; dosed 111 weeks; study length 121 weeks
parameter: TD50

Prompt line: If you can, please state the reported TD50 value of "CC=O" .
Response line: 185 mg/kg/day

* * *

# Test system: rodent lifetime carcinogenesis bioassay, tumor incidence TD50
# assayName: carcinogenic potency in animals, long-term in vivo studies, CPDB compilation (AID 1745844)
# measurementSetup: rat; strain Fischer 344; males; by gavage; site: Zymbal's gland; lesion: carcinoma; dosed 37 weeks; study length 55 weeks
parameter: TD50 (mg/kg/day)
Give a bare numeral; the unit mg/kg/day is implied.

Prompt line: Query for rodent lifetime carcinogenesis bioassay, tumor incidence TD50: what TD50 does the record show for "NC(=O)N(CCO)N=O" ?
Response line: 0.879

* * *

# Test system: rodent lifetime carcinogenesis bioassay, tumor incidence TD50
# assayName: carcinogenic potency in animals, long-term in vivo studies, CPDB compilation (AID 1745844)
# measurementSetup: mouse; strain B6C3F1; males; inhaled; site: mesentery; lesion: hemangiosarcoma; dosed 104 weeks; study length 104 weeks
parameter: TD50 (mg/kg/day)
Give a bare numeral; the unit mg/kg/day is implied.

Prompt line: Query for rodent lifetime carcinogenesis bioassay, tumor incidence TD50: what TD50 does the record show for "C=CC(=C)Cl" ?
Response line: 39

* * *

# Test system: rodent lifetime carcinogenesis bioassay, tumor incidence TD50
# assayName: carcinogenic potency in animals, long-term in vivo studies, CPDB compilation (AID 1745844)
# measurementSetup: rat; strain Fischer 344; males; in feed; site: lung; lesion: alveolar/bronchiolar adenoma; dosed 104 weeks; study length 104 weeks
parameter: TD50 (mg/kg/day)
Give a bare numeral; the unit mg/kg/day is implied.

Prompt line: Query for rodent lifetime carcinogenesis bioassay, tumor incidence TD50: what TD50 does the record show for "[Cl][Sn][Cl]" ?
Response line: 951

* * *

# Test system: rodent lifetime carcinogenesis bioassay, tumor incidence TD50
# assayName: carcinogenic potency in animals, long-term in vivo studies, CPDB compilation (AID 1745844)
# measurementSetup: mouse; strain B6C3F1; males; inhaled; site: lung; lesion: alveolar/bronchiolar adenoma + alveolar/bronchiolar carcinoma; dosed 82 weeks; study length 104 weeks
parameter: TD50 (mg/kg/day)
Give a bare numeral; the unit mg/kg/day is implied.

Prompt line: Query for rodent lifetime carcinogenesis bioassay, tumor incidence TD50: what TD50 does the record show for "C=CC=C" ?
Response line: 19.6

* * *

# System: rodent lifetime carcinogenesis bioassay, tumor incidence TD50
# assayName: carcinogenic potency in animals, long-term in vivo studies, CPDB compilation (AID 1745844)
# measurementSetup: rat; strain Wistar W.74; females; in feed; site: any site (literature study); lesion: benign tumor; dosed 104 weeks; study length 105 weeks
Active and inactive are the calls of the source. How the calls were made is not given here.
parameter: TD50

Prompt line: If you can, please state the reported TD50 value of "[Cl][Cd][Cl]" .
Response line: 44 mg/kg/day (inactive)

* * *

# Tested on: rodent lifetime carcinogenesis bioassay, tumor incidence TD50
# assayName: carcinogenic potency in animals, long-term in vivo studies, CPDB compilation (AID 1745844)
# measurementSetup: rat; strain Fischer 344; females; in feed; site: mammary gland; lesion: adenoma + fibroadenoma; dosed 104 weeks; study length 105 weeks
parameter: TD50 (mg/kg/day)
Give a bare numeral; the unit mg/kg/day is implied.

Prompt line: If you can, please state the reported TD50 value of "OCC(CO)(CBr)CBr" .
Response line: 83

* * *

# System: rodent lifetime carcinogenesis bioassay, tumor incidence TD50
# assayName: carcinogenic potency in animals, long-term in vivo studies, CPDB compilation (AID 1745844)
# measurementSetup: rat; strain Fischer 344; males; in feed; site: liver; lesion: hepatocellular carcinoma; dosed 73 weeks; study length 73 weeks
parameter: TD50

Prompt line: If you can, please state the reported TD50 value of "CN(C)CCN(Cc1cccs1)c1ccccn1" .
Response line: 14.7 mg/kg/day

* * *

# Test system: rodent lifetime carcinogenesis bioassay, tumor incidence TD50
# assayName: carcinogenic potency in animals, long-term in vivo studies, CPDB compilation (AID 1745844)
# measurementSetup: mouse; strain Swiss albino; females; by gavage; site: lung; lesion: several types; types named in the paper; dosed 52 weeks; study length 144 weeks
parameter: TD50

Prompt line: If you can, please state the reported TD50 value of "CCCC/C=N/N(C)C=O" .
Response line: 3.12 mg/kg/day

* * *

# Test system: rodent lifetime carcinogenesis bioassay, tumor incidence TD50
# assayName: carcinogenic potency in animals, long-term in vivo studies, CPDB compilation (AID 1745844)
# measurementSetup: mouse; strain B6C3F1; males; in feed; site: liver; lesion: hepatocellular adenoma; dosed 70 weeks; study length 84 weeks
parameter: TD50 (mg/kg/day)
Give a bare numeral; the unit mg/kg/day is implied.

Prompt line: Query for rodent lifetime carcinogenesis bioassay, tumor incidence TD50: what TD50 does the record show for CCOc1ccc(NC(=O)CC(C)O)cc1 (stereo unspecified) ?
Response line: 17500

* * *

In this section we review reported TD50 values for a set of molecules.
# System: rodent lifetime carcinogenesis bioassay, tumor incidence TD50
# assayName: carcinogenic potency in animals, long-term in vivo studies, CPDB compilation (AID 1745844)
# measurementSetup: rat; strain Fischer 344; males; by gavage; site: liver; lesion: one or several types; types not named; dosed 30 weeks; study length 104 weeks
Give a bare numeral; the unit mg/kg/day is implied.

In [3]: df
Out[3]:
            samplesmiles                               studysystem  result
0  CCN(N=O)C(=O)NCC(C)=O  rodent lifetime carcinogenesis bioassay, tumor incidence TD50    3.39

// moving on: another record for TD50
Prompt line: If you can, please state the reported TD50 value of "NC(=O)N(CCCO)N=O" .
Response line: 3.78

* * *

# Tested on: rodent lifetime carcinogenesis bioassay, tumor incidence TD50
# assayName: carcinogenic potency in animals, long-term in vivo studies, CPDB compilation (AID 1745844)
# measurementSetup: rat; strain Osborne-Mendel; females; in drinking water; site: nasal turbinate; lesion: squamous-cell carcinoma; dosed 110 weeks; study length 111 weeks
parameter: TD50

Prompt line: Query for rodent lifetime carcinogenesis bioassay, tumor incidence TD50: what TD50 does the record show for "C1COCCO1" ?
Response line: 476 mg/kg/day
